This collection of values is drawn from patent US20260258084A1.

Listed next: entries and their corresponding remaining at 4 h, 1 µM.
system: Pancreatin; assay: Protease stability in simulated intestinal fluid (Pancreatin-SIF, FaSSIF); assay type: in vitro ADME; conditions: 240 min, 1 μM peptide, 37° C., read-out: FaSSIF 240 (min), remaining percent of peptide
Starred links: 1 amine or outer side, 2 acyl side, 3 side chain; linkers in the order of their positions; H or OH if unused. Positions of bridges follow the written chain, without caps; N, C: chain ends. Non-standard residues stand in square brackets, D forms with d. Residues, ends and D or L forms follow the SMILES beside them. *: point of attachment. X1 = O=C(CCCCN[*:3])N[C@@H](CS[*:2])C(=O)[*:1]; 2Nal = N[C@@H](Cc1ccc2ccccc2c1)C(=O)O; Me2NCH2CH2 = CN(C)CC*; Aib = CC(C)(N)C(=O)O; Ahx = NCCCCCC(=O)O
Please respond with the number in % and leave the unit unwritten.

>>> quantitative_readout("CC(=O)N[C@H]1CCCCNC(=O)[C@@H]2CSSC[C@H](NC(=O)[C@H](CCC(N)=O)NC(=O)[C@H](Cc3c[nH]c4ccccc34)NC1=O)C(=O)N[C@@H](Cc1ccc(OCCN(C)C)cc1)C(=O)N[C@@H](Cc1ccc3ccccc3c1)C(=O)NC(C)(C)C(=O)N[C@H](C(=O)N[C@@H](C)C(=O)NCC(N)=O)CCC(=O)NCCCCC(=O)N2 [compound 32] (Ac-KWQCY(Me2NCH2CH2)[2Nal][Aib]EAG-NH2; linker 1-4-8 via X1)")
55

Next:
Fill in: remaining at 4 h, 1 µM of COc1ccc(C[C@@H]2NC(=O)[C@@H]3CSSC[C@H](NC(=O)CCCCCNC(=O)CC[C@@H](C(=O)N[C@@H](CC(N)=O)C(=O)N[C@@H](CC(N)=O)C(N)=O)NC(=O)C(C)(C)NC(=O)[C@H](Cc4ccc5ccccc5c4)NC2=O)C(=O)N[C@@H](CC(N)=O)C(=O)N[C@@H]([C@@H](C)O)C(=O)N[C@@H](Cc2c[nH]c4ccccc24)C(=O)N[C@@H](CCC(N)=O)C(=O)N3)cc1 [compound 2] ([Ahx]CNTWQCY(Me)[2Nal][Aib]ENN-NH2; disulfide 2-7; lactam N-11) is ___
47

====

Reported solubility at 2 h by item:
experiment: Solubility testing of peptides at different pH; format: physicochemical; conditions: 50 mM HCl buffer; 50 mM HCl pH 1.2; target concentration 1 mg/ml; 2 hours agitation; read-out: Solubility Buffer pH 1.2
Starred links: 1 amine or outer side, 2 acyl side, 3 side chain; linkers in the order of their positions; H or OH if unused. Positions of bridges follow the written chain, without caps; N, C: chain ends. Non-standard residues stand in square brackets, D forms with d. Residues, ends and D or L forms follow the SMILES beside them. *: point of attachment. Trp(7-Me) = Cc1cccc2c(C[C@H](N)C(=O)O)c[nH]c12; X1 = O=C(CCCCN[*:3])N[C@@H](CS[*:2])C(=O)[*:1]; 2Nal = N[C@@H](Cc1ccc2ccccc2c1)C(=O)O; 3Pal = N[C@@H](Cc1cccnc1)C(=O)O; αMeL = CC(C)C[C@](C)(N)C(=O)O; Thp = NC1(C(=O)O)CCOCC1; Me2NCH2CH2 = CN(C)CC*; Aib = CC(C)(N)C(=O)O; Ahx = NCCCCCC(=O)O; Ava = NCCCCC(=O)O; βAla = NCCC(=O)O; Sar = CNCC(=O)O

Illustrative cases are given below, each with its answer.
>>> result("CC(=O)N[C@H]1CCCCNC(=O)[C@@H]2CSSC[C@H](NC(=O)[C@H](CCC(N)=O)NC(=O)[C@H](Cc3c[nH]c4ccccc34)NC1=O)C(=O)N[C@@H](Cc1ccc(OCCN(C)C)cc1)C(=O)N[C@@H](Cc1ccc3ccccc3c1)C(=O)NC(C)(C)C(=O)N[C@H](C(=O)N[C@@H](C)C(=O)NCC(N)=O)CCC(=O)NCCCCC(=O)N2 [compound 32] (Ac-KWQCY(Me2NCH2CH2)[2Nal][Aib]EAG-NH2; linker 1-4-8 via X1)")
"740 µg/mL"
>>> result("CC(=O)NCCCC[C@@H]1NC(=O)[C@H](Cc2c[nH]c3c(C)cccc23)NC(=O)[C@H]([C@@H](C)O)NC(=O)[C@H](CC(N)=O)NC(=O)[C@@H]2CSSC[C@H](NC1=O)C(=O)N[C@@H](Cc1ccc(OCCN(C)C)cc1)C(=O)N[C@@H](Cc1ccc3ccccc3c1)C(=O)NC1(CCOCC1)C(=O)N[C@H](C(=O)N[C@@H](CO)C(=O)N[C@@H](Cc1cccnc1)C(=O)N(C)CC(N)=O)CCC(=O)NCCCCC(=O)N2 [compound 56] ([Ava]CNT[Trp(7-Me)]K(Ac)CY(Me2NCH2CH2)[2Nal][Thp]ES[3Pal][Sar]-NH2; disulfide 2-7; lactam N-11)")
"≥ 1090 µg/mL"

Request the reported solubility at 2 h associated with CC(C)C[C@@H](NC(=O)[C@H](CC(N)=O)NC(=O)[C@@H]1CCC(=O)NCCCCC(=O)N[C@H]2CSSC[C@H](NC(=O)[C@H](CCC(N)=O)NC(=O)[C@H](Cc3c[nH]c4ccccc34)NC(=O)[C@H]([C@@H](C)O)NC(=O)[C@H](CC(N)=O)NC2=O)C(=O)N[C@@H](Cc2ccc(OCCN(C)C)cc2)C(=O)N[C@@H](Cc2ccc3ccccc3c2)C(=O)N[C@@](C)(CC(C)C)C(=O)N1)C(N)=O [compound 10] ([Ava]CNTWQCY(Me2NCH2CH2)[2Nal][αMeL]EN[dL]-NH2; disulfide 2-7; lactam N-11)
< 10 µg/mL

Similarly, COc1ccc(C[C@@H]2NC(=O)[C@@H]3CSSC[C@H](NC(=O)CCCCCNC(=O)CC[C@@H](C(=O)N[C@@H](CC(N)=O)C(=O)N[C@@H](CC(N)=O)C(N)=O)NC(=O)C(C)(C)NC(=O)[C@H](Cc4ccc5ccccc5c4)NC2=O)C(=O)N[C@@H](CC(N)=O)C(=O)N[C@@H]([C@@H](C)O)C(=O)N[C@@H](Cc2c[nH]c4ccccc24)C(=O)N[C@@H](CCC(N)=O)C(=O)N3)cc1 [compound 2] ([Ahx]CNTWQCY(Me)[2Nal][Aib]ENN-NH2; disulfide 2-7; lactam N-11) ?
100 µg/mL

Please give the result for CC(=O)NCCCC[C@@H]1NC(=O)[C@H](Cc2c[nH]c3c(C)cccc23)NC(=O)[C@@H](NC(C)=O)CCCCNC(=O)[C@@H]2CSSC[C@H](NC1=O)C(=O)N[C@@H](Cc1ccc(OCCN(C)C)cc1)C(=O)N[C@@H](Cc1ccc3ccccc3c1)C(=O)NC1(CCOCC1)C(=O)N[C@H](C(=O)N[C@@H](CC(N)=O)C(=O)N[C@@H](Cc1cccnc1)C(=O)N(C)CC(N)=O)CCC(=O)NCCCCC(=O)N2 [compound 66] (Ac-K[Trp(7-Me)]K(Ac)CY(Me2NCH2CH2)[2Nal][Thp]EN[3Pal][Sar]-NH2; linker 1-4-8 via X1) too.
≥ 1630 µg/mL

Cool, now COc1ccc(C[C@@H]2NC(=O)[C@@H]3CSSC[C@H](NC(=O)[C@@H](NC(C)=O)CCCCNC(=O)C[C@@H](C(=O)N[C@@H](CC(N)=O)C(=O)N[C@@H](CC(N)=O)C(N)=O)NC(=O)C(C)(C)NC(=O)[C@H](Cc4ccc5ccccc5c4)NC2=O)C(=O)N[C@@H](CC(N)=O)C(=O)N[C@@H]([C@@H](C)O)C(=O)N[C@@H](Cc2c[nH]c4ccccc24)C(=O)N[C@@H](CCC(N)=O)C(=O)N3)cc1 [compound 7] (Ac-KCNTWQCY(Me)[2Nal][Aib]DNN-NH2; lactam 1-11; disulfide 2-7)
200 µg/mL

And for C[C@@H](O)[C@@H]1NC(=O)[C@H](CC(N)=O)NC(=O)[C@@H]2CSSC[C@H](NC(=O)[C@H](CCC(N)=O)NC(=O)[C@H](Cc3c[nH]c4ccccc34)NC1=O)C(=O)N[C@@H](Cc1ccc(OCCN)cc1)C(=O)N[C@H](Cc1ccc3ccccc3c1)C(=O)NC(C)(C)C(=O)N[C@H](C(=O)N[C@@H](CC(N)=O)C(=O)N[C@@H](CC(N)=O)C(N)=O)CCC(=O)NCCCCC(=O)N2 [compound 5] ?
≥ 1110 µg/mL

Can you handle CC(=O)NCCCC[C@@H]1NC(=O)[C@H](Cc2c[nH]c3c(C)cccc23)NC(=O)[C@H]([C@@H](C)O)NC(=O)[C@H](CC(N)=O)NC(=O)[C@@H]2CSSC[C@H](NC1=O)C(=O)N[C@@H](Cc1ccc(OCCN(C)C)cc1)C(=O)N[C@@H](Cc1ccc3ccccc3c1)C(=O)NC1(CCOCC1)C(=O)N[C@H](C(=O)N[C@@H](CC(N)=O)C(=O)N[C@@H](Cc1c[nH]cn1)C(=O)NCCC(N)=O)CCC(=O)NCCCCC(=O)N2 [compound 49] ([Ava]CNT[Trp(7-Me)]K(Ac)CY(Me2NCH2CH2)[2Nal][Thp]ENH[βAla]-NH2; disulfide 2-7; lactam N-11) next?
≥ 1110 µg/mL
